assay: in vitro; assay type: cell-based; conditions: human
measurement type: GI50

Task: Supply measured GI50 of C[C@@H]1NC(=O)[C@H](CO)NC(=O)[C@@H]2CSSC[C@H](NC(=O)[C@H](Cc3ccc(O)cc3)NC(=O)[C@H](CCCNC(=N)N)NC(=O)[C@H](CCN)NC(=O)[C@@H](Cc3ccc(O)cc3)NC1=O)C(=O)N[C@@H](Cc1ccc(O)cc1)C(=O)N[C@@H](CCC(N)=O)C(=O)N[C@@H](CCCCN)C(=O)N(C)[C@H](C)C(=O)N1CCC[C@H]1C(=O)N[C@@H](Cc1ccc(O)cc1)C(=O)N[C@@H](Cc1c[nH]cn1)C(=O)N[C@@H](C)C(=O)N2 in your reply.
Result: > 50 µM

====

For each of the molecules below, state its GI50.
assay: in vitro; format: cell-based; settings: human
Positions of bridges follow the written chain, without caps; N, C: chain ends. Non-standard residues stand in square brackets, D forms with d. Residues, ends and D or L forms follow the SMILES beside them. Oic = O=C(O)[C@@H]1C[C@@H]2CCCC[C@@H]2N1; Dab = NCC[C@H](N)C(=O)O

Task: Please report GI50 for the following molecule: C[C@@H]1NC(=O)[C@H](Cc2c[nH]cn2)NC(=O)[C@H](Cc2ccc(O)cc2)NC(=O)[C@@H]2C[C@@H]3CCCC[C@@H]3N2C(=O)[C@H]2CCCN2C(=O)[C@H](CCCCN)NC(=O)[C@H](CCC(N)=O)NC(=O)[C@H](Cc2ccc(O)cc2)NC(=O)[C@@H]2CSSC[C@H](NC1=O)C(=O)N[C@@H](CO)C(=O)N[C@@H](C)C(=O)N1CCC[C@@H]1C(=O)N[C@@H](CCN)C(=O)N[C@@H](CCCNC(=N)N)C(=O)N[C@@H](Cc1ccc(O)cc1)C(=O)N2 [compound 16] (cyclo(ACSA[dP][Dab]RYCYQK[dP][Oic]YH); disulfide 2-9)
Result: > 50 µM

Task: Read off the recorded GI50 for C[C@@H]1NC(=O)[C@H](Cc2c[nH]cn2)NC(=O)[C@H](Cc2ccc(O)cc2)NC(=O)[C@@H]2CCCN2C(=O)[C@@H](Cc2ccncc2)NC(=O)[C@H](CCCCN)NC(=O)[C@H](CCC(N)=O)NC(=O)[C@H](Cc2ccc(O)cc2)NC(=O)[C@@H]2CSSC[C@H](NC1=O)C(=O)N[C@@H](CO)C(=O)N[C@@H](C)C(=O)N1CCC[C@@H]1C(=O)N[C@@H](CCN)C(=O)N[C@@H](CCCNC(=N)N)C(=O)N[C@@H](Cc1ccc(O)cc1)C(=O)N2
Result: > 50 µM

====

system: human red blood cells (hRBC); settings: red cells of human, 1 h
measurement type: Hemolysis at 100 μM (%)
The reply should be a number in %, with the unit left off.

Task: Please report the measured Hemolysis at 100 μM for C[C@@H]1NC(=O)[C@H](Cc2c[nH]cn2)NC(=O)[C@H](Cc2ccc(O)cc2)NC(=O)[C@@H]2CCCN2C(=O)[C@@H](Cc2ccncc2)NC(=O)[C@H](CCCCN)NC(=O)[C@H](CCC(N)=O)NC(=O)[C@H](Cc2ccc(O)cc2)NC(=O)[C@@H]2CSSC[C@H](NC1=O)C(=O)N[C@@H](CO)C(=O)N[C@@H](C)C(=O)N1CCC[C@@H]1C(=O)N[C@@H](CCN)C(=O)N[C@@H](CCCNC(=N)N)C(=O)N[C@@H](Cc1ccc(O)cc1)C(=O)N2 [compound 6] tested on human red blood cells (hRBC).
Result: 2.4

Task: Give Hemolysis at 100 μM for C[C@@H]1NC(=O)[C@H](CO)NC(=O)[C@@H]2CSSC[C@H](NC(=O)[C@H](Cc3ccc(O)cc3)NC(=O)[C@H](CCCNC(=N)N)NC(=O)[C@H](CCN)NC(=O)[C@@H](Cc3ccc(O)cc3)NC1=O)C(=O)N[C@@H](Cc1ccc(O)cc1)C(=O)N[C@@H](CCC(N)=O)C(=O)N[C@@H](CCCCN)C(=O)N(C)[C@H](C)C(=O)N1CCC[C@H]1C(=O)N[C@@H](Cc1ccc(O)cc1)C(=O)N[C@@H](Cc1c[nH]cn1)C(=O)N[C@@H](C)C(=O)N2 [compound 12] tested on human red blood cells (hRBC).
Result: 0.9

====

Tested on: human red blood cells (hRBC)
Conditions: red cells of human, 1 h
Experimental: The peptides were tested for their hemolytic activity against human red blood cells (hRBC). Fresh hRBC were washed three times with phosphate buffered saline (PBS) and centrifuged for 10 min at 2000×g. […] A value of 0% and 100% cell lyses, respectively, was determined by incubation of hRBC in the presence of PBS alone and 0.1% Triton X-100 in H2O, respectively. The samples were centrifuged, the supernatants were 20-fold diluted in PBS buffer and the optical densities (OD) were measured at 540 nm. […]
measurement type: Hemolysis at 100 μM (%)
Give just the number in %; leave the unit off.

Task: Quick one: give measured Hemolysis at 100 μM for C[C@@H]1NC(=O)[C@H](Cc2c[nH]cn2)NC(=O)[C@H](Cc2ccc(O)cc2)NC(=O)[C@@H]2CCCN2C(=O)[C@@H](CC2CCCCC2)NC(=O)[C@H](CCCCN)NC(=O)[C@H](CCC(N)=O)NC(=O)[C@H](Cc2ccc(O)cc2)NC(=O)[C@@H]2CSSC[C@H](NC1=O)C(=O)N[C@@H](CO)C(=O)N[C@@H](C)C(=O)N1CCC[C@@H]1C(=O)N[C@@H](CCN)C(=O)N[C@@H](CCCNC(=N)N)C(=O)N[C@@H](Cc1ccc(O)cc1)C(=O)N2
Result: 0

Task: For the compound CC[C@@H](C)[C@H]1NC(=O)[C@H](CCCCN)NC(=O)[C@H](CCC(N)=O)NC(=O)[C@H](Cc2ccc(O)cc2)NC(=O)[C@@H]2CSSC[C@H](NC(=O)[C@H](C)NC(=O)[C@H](Cc3c[nH]cn3)NC(=O)[C@H](Cc3ccc(O)cc3)NC(=O)[C@@H]3CCCN3C1=O)C(=O)N[C@@H](CO)C(=O)N[C@@H](C)C(=O)N[C@H](Cc1c[nH]c3ccccc13)C(=O)N[C@@H](CCN)C(=O)N[C@@H](CCCNC(=N)N)C(=O)N[C@@H](Cc1ccc(O)cc1)C(=O)N2 , give its measured Hemolysis at 100 μM value.
Result: 1.7

====

assay: Plasma stability in mouse plasma; details: mouse plasma, 37° C., sampling up to 240 min
measurement type: Plasmastability mouse pl. T1/2 (h)
Unit h implied. Number only.

Task: State its Plasmastability mouse pl. T1/2: C[C@@H]1NC(=O)[C@H](Cc2c[nH]cn2)NC(=O)[C@H](Cc2ccc(O)cc2)NC(=O)[C@@H]2CCCN2C(=O)[C@@H](Cc2ccncc2)NC(=O)[C@H](CCCCN)NC(=O)[C@H](CCC(N)=O)NC(=O)[C@H](Cc2ccc(O)cc2)NC(=O)[C@@H]2CSSC[C@H](NC1=O)C(=O)N[C@@H](CO)C(=O)N[C@@H](C)C(=O)N1CCC[C@@H]1C(=O)N[C@@H](CCN)C(=O)N[C@@H](CCCNC(=N)N)C(=O)N[C@@H](Cc1ccc(O)cc1)C(=O)N2 [compound 6]
Result: 4

====

tested on: human red blood cells (hRBC); conditions: red cells of human, 1 h
Positions of bridges follow the written chain, without caps; N, C: chain ends. Non-standard residues stand in square brackets, D forms with d. Residues, ends and D or L forms follow the SMILES beside them. ξ: configuration not given here. Oic = O=C(O)[C@@H]1C[C@@H]2CCCC[C@@H]2N1; Dab = NCC[C@H](N)C(=O)O; ξT = CC(O)C(N)C(=O)O
measurement type: Hemolysis at 100 μM
Entry format: amount then unit.

Task: Given C[C@@H]1NC(=O)[C@H](Cc2c[nH]cn2)NC(=O)[C@H](Cc2ccc(O)cc2)NC(=O)[C@@H]2CCCN2C(=O)[C@@H](CCCCN)N(C)C(=O)[C@H](CCCCN)NC(=O)[C@H](CCC(N)=O)NC(=O)[C@H](Cc2ccc(O)cc2)NC(=O)[C@@H]2CSSC[C@H](NC1=O)C(=O)N[C@@H](CO)C(=O)N[C@@H](C)C(=O)N1CCC[C@@H]1C(=O)N[C@@H](CCN)C(=O)N[C@@H](CCCNC(=N)N)C(=O)N[C@@H](Cc1ccc(O)cc1)C(=O)N2 , respond with its Hemolysis at 100 μM.
Result: 0.3%

Task: Determine its reported Hemolysis at 100 μM: C[C@@H]1NC(=O)[C@H](Cc2c[nH]cn2)NC(=O)[C@H](Cc2ccc(O)cc2)NC(=O)[C@@H]2CCCN2C(=O)CN(CCCCN)C(=O)[C@H](CCCCN)NC(=O)[C@H](CCC(N)=O)NC(=O)[C@H](Cc2ccc(O)cc2)NC(=O)[C@@H]2CSSC[C@H](NC1=O)C(=O)N[C@@H](CO)C(=O)N[C@@H](C)C(=O)N1CCC[C@@H]1C(=O)N[C@@H](CCN)C(=O)N[C@@H](CCCNC(=N)N)C(=O)N[C@@H](Cc1ccc(O)cc1)C(=O)N2
Result: 2.1%

Task: Assign Hemolysis at 100 μM to the following record: C[C@@H]1NC(=O)[C@H](Cc2c[nH]cn2)NC(=O)[C@H](Cc2ccc(O)cc2)NC(=O)[C@@H]2C[C@@H]3CCCC[C@@H]3N2C(=O)[C@H]2CCCN2C(=O)[C@H](CCCCN)NC(=O)[C@H](CCC(N)=O)NC(=O)[C@H](Cc2ccc(O)cc2)NC(=O)[C@@H]2CSSC[C@H](NC1=O)C(=O)N[C@@H](CO)C(=O)N[C@@H](C)C(=O)N1CCC[C@@H]1C(=O)N[C@@H](CCN)C(=O)N[C@@H](CCCNC(=N)N)C(=O)N[C@@H](Cc1ccc(O)cc1)C(=O)N2 [compound 16] (cyclo(ACSA[dP][Dab]RYCYQK[dP][Oic]YH); disulfide 2-9)
Result: 0.5%

Task: Return the recorded Hemolysis at 100 μM value; entry: CC(O)C1NC(=O)[C@@H]2CSSC[C@H](NC(=O)[C@H](Cc3ccc(O)cc3)NC(=O)[C@H](CCCNC(=N)N)NC(=O)[C@H](CCN)NC(=O)[C@H]3CCCN3C(=O)[C@H](C)NC1=O)C(=O)N[C@@H](Cc1ccc(O)cc1)C(=O)N[C@@H](CCC(N)=O)C(=O)N[C@@H](CCCCN)C(=O)N1CCC[C@@H]1C(=O)N1CCC[C@H]1C(=O)N[C@@H](Cc1ccc(O)cc1)C(=O)N[C@@H](Cc1c[nH]cn1)C(=O)N[C@@H](C)C(=O)N2 (stereo partly shown) [compound 17] (cyclo(YHAC[ξT]A[dP][Dab]RYCYQK[dP]P); disulfide 4-11)
Result: 1%
